Molecular target: tankyrase-1 (Homo sapiens, UniProt O95271)
Sequence (O95271 1030-1327): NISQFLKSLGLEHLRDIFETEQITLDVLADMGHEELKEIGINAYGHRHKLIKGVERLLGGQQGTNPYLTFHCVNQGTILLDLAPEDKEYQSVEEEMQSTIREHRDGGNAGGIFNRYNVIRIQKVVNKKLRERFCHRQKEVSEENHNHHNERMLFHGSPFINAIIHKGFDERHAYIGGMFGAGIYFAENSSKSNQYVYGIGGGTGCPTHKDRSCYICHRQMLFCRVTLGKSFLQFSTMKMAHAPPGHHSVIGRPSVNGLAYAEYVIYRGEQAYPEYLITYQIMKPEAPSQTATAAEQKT
metric: IC50 (nM)

1) O=C1NCCc2c(OCCCCN3CCCCC3)cccc21    33
